Entries and their measured log10 of viscosity follow.
experiment: xn = mol fraction of the nth substance listed
testConditions: 308.15 K; 101 kPa; x2 = 0.2
log10 viscosity, mPa·s

// solved cases for log10 of viscosity follow
>  <compound>
CCCCCCCCCCO + CCO

>  <assayResult>
0.80

$$$$
>  <compound>
CCCCCCCCCCO + CO

>  <assayResult>
0.77

$$$$
>  <compound>
CCCCCCCCCCO + CCCCO

>  <assayResult>
0.79

$$$$
>  <compound>
CCCCCCCCCCO + CCCO

>  <assayResult>
0.80

$$$$
>  <compound>
Cc1ccccc1C + c1ccccc1

>  <assayResult>
-0.20

$$$$

# input for lookup
So for Cc1ccccc1C + C1COCCO1 , the logged log10 of viscosity turned out to be -0.16

###

experiment: xn = mol fraction of the nth substance listed
testConditions: 308.15 K; 101 kPa; x2 = 0.85
Entries and their measured viscosity follow.
Report only the number, with the unit mPa·s understood.

>  <compound>
CCCCCCCCCCO + CCO

>  <assayResult>
1.641

$$$$
>  <compound>
CCCCCCCCCCO + CCCO

>  <assayResult>
3.065

$$$$

So for CCCCCCCCCCO + CO , the logged viscosity turned out to be 1.131

So for CCCCCCCCCCO + CCCCO , the logged viscosity turned out to be 2.592

###

experiment: xn = mol fraction of the nth substance listed
testConditions: 298.15 K; 101 kPa; x2 = 0.8
Entries and their measured viscosity follow.
Report only the number, with the unit mPa·s understood.

// solved cases for viscosity follow
>  <compound>
CCCCCCCCCCO + CCCO

>  <unitAbbrev>
mPa·s

>  <viscosity>
3.303

$$$$
>  <compound>
CCCCCCCCCCO + CCCCO

>  <unitAbbrev>
mPa·s

>  <viscosity>
3.788

$$$$
>  <compound>
CCCCCCCCCCO + CCO

>  <unitAbbrev>
mPa·s

>  <viscosity>
2.326

$$$$

# input for lookup
So for CCCCCCCCCCO + CO , the logged viscosity turned out to be 1.681

###

Entries and their measured viscosity follow.
experiment: xn = mol fraction of the nth substance listed
testConditions: 298.15 K; 101 kPa; x2 = 0.85
Report only the number, with the unit mPa·s understood.

// solved cases for viscosity follow
>  <molecule>
CCCCCCCCCCO + CO

>  <unitAbbrev>
mPa·s

>  <viscosity>
1.34

$$$$
>  <molecule>
CCCCCCCCCCO + CCCCO

>  <unitAbbrev>
mPa·s

>  <viscosity>
3.468

$$$$

So for CCCCCCCCCCO + CCCO , the logged viscosity turned out to be 2.915

So for CCCCCCCCCCO + CCO , the logged viscosity turned out to be 1.961

###

experiment: xn = mol fraction of the nth substance listed
testConditions: 318.15 K; 101 kPa; x2 = 0.95
assayEndpoint: viscosity (mPa·s)
Report only the number, with the unit mPa·s understood.

// solved cases for viscosity follow
>  <compound>
CCCCCCCCCCO + CCCO

>  <assayEndpoint>
viscosity

>  <unitAbbrev>
mPa·s

>  <assayResult>
2.953

$$$$
>  <compound>
CCCCCCCCCCO + CCCCO

>  <assayEndpoint>
viscosity

>  <unitAbbrev>
mPa·s

>  <assayResult>
1.665

$$$$
>  <compound>
CCCCCCCCCCO + CCO

>  <assayEndpoint>
viscosity

>  <unitAbbrev>
mPa·s

>  <assayResult>
0.9601

$$$$

# input for lookup
So for CCCCCCCCCCO + CO , the logged viscosity turned out to be 0.582
